Tested on: TDF
Assay: H1.0 immunofluorescence intensity relative to DMSO (% of DMSO); higher = stronger H1.0 induction, active = 120 or more
Settings: concentration: 10 µM; 24 h
Threshold rule: H1.0 immunofluorescence intensity greater than or equal to 100 is true; below that, false.

Consider the following illustrative entries.
{"Molecule": "COc1ccc2[nH]c(S(=O)Cc3ncc(C)c(OC)c3C)nc2n1 (centres undefined) [Tenatoprazole]", "Class label": "true"}
{"Molecule": "NNC(=O)c1ccncc1 [Isoniazid]", "Class label": "false"}
{"Molecule": "O=C(O)CCCCC=CCC(O)C=CC=CC=CC(O)CCCC(=O)O (centres undefined) [20-Carboxy-leukotriene B4]", "Class label": "false"}

Would you kindly look at the next entry?
Determine whether measured H1.0 immunofluorescence intensity meets or exceeds 100 for CC(CCc1ccc(O)cc1)NCCc1ccc(O)c(O)c1.Cl (centres undefined) [Dobutamine.HCl]
false

###

Test system: HCC1569
Assay: H1.0 immunofluorescence intensity relative to DMSO (% of DMSO); higher = stronger H1.0 induction, active = 140 or more
Conditions: concentration: 10 µM; 24 h
Measured H1.0 immunofluorescence intensity, listed per entry for reference.
Write the number on its own, no unit after it.

{"Molecule": "CCOC(=O)[C@H](Cc1ccc([N+](=O)[O-])cc1)NC(=O)c1ccccc1 [ethyl (2S)-2-(benzoylamino)-3-(4-nitrophenyl)propanoate]", "H1.0 immunofluorescence intensity": 95}
{"Molecule": "NC1CONC1=O [D-Cycloserine]", "H1.0 immunofluorescence intensity": 92.1}
{"Molecule": "C[C@@H]([C@@H](O)c1ccc(O)cc1)N1CCC(O)(c2ccccc2)CC1", "H1.0 immunofluorescence intensity": 105}
{"Molecule": "CCn1nc(C(=O)O)c(=O)c2cc3c(cc21)OCO3 [Cinoxacin]", "H1.0 immunofluorescence intensity": 97.5}

API: the following record is the query input.
GET /values?readout=H1.0 immunofluorescence intensity&item= Cc1cc(C(C)(C)C)cc(C)c1CC1=NCCN1.Cl [Xylometazoline hydrochloride]
110

###

Tested on: HCC1569
Test: cell number relative to DMSO (% of DMSO); higher = more cells (less growth inhibition / toxicity)
Settings: concentration: 10 µM; 24 h
Structures can show the parent of a compound that is named as a salt.
Reported cell number values follow for various compounds

Would you please look over these solved cases?
{"Compound": "C#CCN(C)Cc1ccccc1.Cl [Pargyline hydrochloride]", "Measured value": 114}
{"Compound": "Cc1ccc(C(=CCN2CCCC2)c2ccccn2)cc1.Cl [Triprolidine hydrochloride]", "Measured value": 106}
{"Compound": "COc1cc2nc(N3CCN(C(=O)c4ccco4)CC3)nc(N)c2cc1OC.Cl [Prazosin hydrochloride]", "Measured value": 91.9}
{"Compound": "Nc1nc(=O)c2ncc(=O)[nH]c2[nH]1", "Measured value": 104}
{"Compound": "COc1ccc2c(c1)c(CC(=O)O)c(C)n2C(=O)c1ccccc1", "Measured value": 101}
{"Compound": "CC1(C)C2CCC1(C(=O)O)C(=O)C2 (stereo unspecified)", "Measured value": 103}

Need cell number, item CC(C(=O)O)c1ccc2c(c1)Cc1cccnc1O2 (stereo unspecified)
98.6

Look up cell number: CCCCC1(C2CCCC2)Cc2cc(OCC(=O)O)c(Cl)c(Cl)c2C1=O (stereo not drawn) [R(+)-Butylindazone]
98.8

Entry under review: CCCCCCCCCCCCCC(=O)NC(C)C(O)c1ccccc1 [L-erythro MAPP] . Reported cell number?
97.3

I would be grateful if you could share the reported cell number for COC(=O)C1C(O)CCC2CN3CCc4c([nH]c5ccccc45)C3CC21.Cl (stereo unspecified) .
102

I would be grateful if you could share the reported cell number for CC(C)(C)NCC(O)COc1nsnc1N1CCOCC1 (stereo not drawn) [S(-)-Timolol maleate] .
97.5

What cell number value was documented for this compound, `O=c1cc(-c2ccc(O)cc2)oc2cc(O)cc(O)c12` ?
93.5

Give its cell number value. Item: CNCC(O)c1ccc(O)c(O)c1.O=C(O)C(O)C(O)C(=O)O (single isomer, unassigned; (-)) [(-)-Epinephrine bitartrate]
100

Which cell number is reported for this compound? `CCCCCC=CCC=CCC=CCC=CCCCC(=O)C(F)(F)F`
104

For the compound shown here, CCCCCN(C)CCC(O)(P(=O)(O)O)P(=O)(O)O [Ibandronate] , give the reported cell number.
103

Which measured cell number value corresponds to O=C1Nc2cc(Br)ccc2C1=C1N=c2ccccc2=C1NO [(2'Z,3'E)-6-Bromoindirubin-3'-oxime] ?
54.7

Can you look up the measured cell number of `CC1=CCC(C)(C)C=CC(=O)C(C)=CCC1` for me?
87.7

Tell me the measured cell number of C=CC(=O)N1C/C(=C\c2ccc([N+](=O)[O-])cc2)C(=O)/C(=C/c2ccc([N+](=O)[O-])cc2)C1 [1-acryloyl-3,5-bis((E)-4-nitrobenzylidene)piperidin-4-one] , please.
17.5

Report cell number for CCCCCCCCC=CCCCCCCCCC(=O)O [10(E)-Nonadecenoic acid] please.
96.1

Entry `O=C(O)C1=CC(=NNc2ccc(S(=O)(=O)Nc3ccccn3)cc2)C=CC1=O` has what cell number?
106

What measured cell number goes with CCC1=C(C)CN(C(=O)NCCc2ccc(S(=O)(=O)NC(=O)NC3CCC(C)CC3)cc2)C1=O (stereo unspecified) [Glimepiride] ?
102

# query: cell number of entry CCN(CC)CC#CCOC(=O)C(O)(c1ccccc1)C1CCCCC1.Cl (stereo unspecified) [Oxybutynin Chloride]
101

Given the compound `COC(=O)Nc1nc2ccc(Sc3ccccc3)cc2[nH]1` , what is its reported cell number?
64

Need cell number of C1CCN2CC3CC(CN4CCCCC34)C2C1.O.O.O.O.O.O=S(=O)(O)O (stereo unspecified) , thanks.
103
